Test system: PDC tumor spheroids with HUVEC/MSC, viability
Test: Anticancer human tumor 439559-082-T-J2-PDC patient-derived colon adenocarcinoma cell line growth inhibition [TAK]
Conditions: second compound 0.949 µM; first compound 0.00316 µM; stronger effect = lower value

| compound | tested-on | viability, T/C (%) |
| --- | --- | --- |
| COC1CC2CCC(C)C(O)(O2)C(=O)C(=O)N2CCCCC2C(=O)OC(C(C)CC2CCC(OCCO)C(OC)C2)CC(=O)C(C)C=C(C)C(O)C(OC)C(=O)C(C)CC(C)C=CC=CC=C1C (stereo not given) + CC(C)NCC(C(=O)N1CCN(c2ncnc3c2C(C)CC3O)CC1)c1ccc(Cl)cc1 | PDC tumor spheroids with HUVEC/MSC, viability | 85.9 |
| COc1c(OCCCN2CCOCC2)ccc2c3n(c(=NC(=O)c4cnc(N)nc4)nc12)CCN3 + CC(C)NCC(C(=O)N1CCN(c2ncnc3c2C(C)CC3O)CC1)c1ccc(Cl)cc1 | PDC tumor spheroids with HUVEC/MSC, viability | 98.5 |
| CC(C)CC(NC(=O)C(Cc1ccccc1)NC(=O)c1cnccn1)B(O)O (stereo not given) + CC(C)NCC(C(=O)N1CCN(c2ncnc3c2C(C)CC3O)CC1)c1ccc(Cl)cc1 | PDC tumor spheroids with HUVEC/MSC, viability | 93.2 |
| CC(C)n1nc(-c2ccc3oc(N)nc3c2)c2c(N)ncnc21 + CC(C)NCC(C(=O)N1CCN(c2ncnc3c2C(C)CC3O)CC1)c1ccc(Cl)cc1 | PDC tumor spheroids with HUVEC/MSC, viability | 83 |
| CC(C)CC(NC(=O)CNC(=O)c1cc(Cl)ccc1Cl)B1OC(=O)CC(CC(=O)O)(C(=O)O)O1 (stereo not given) + CC(C)NCC(C(=O)N1CCN(c2ncnc3c2C(C)CC3O)CC1)c1ccc(Cl)cc1 | PDC tumor spheroids with HUVEC/MSC, viability | 102 |

----------
# pIC50 listing for each entry below
System: PDC tumor spheroids with HUVEC/MSC, viability
Test: Anticancer human tumor 439559-082-T-J2-PDC cell line growth inhibition [TAK];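 also: spheroids exposed to drugs for seven days before readout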
Conditions: curve of first compound; second compound 0.949 µM
pIC50: −log10 of the molar value.
measured-metric: pIC50

| compound | measured-metric | observed-result |
| --- | --- | --- |
| CC(C)n1nc(-c2ccc3oc(N)nc3c2)c2c(N)ncnc21 + CC(C)NCC(C(=O)N1CCN(c2ncnc3c2C(C)CC3O)CC1)c1ccc(Cl)cc1 | pIC50 | < 7.00 |
| COC1CC2CCC(C)C(O)(O2)C(=O)C(=O)N2CCCCC2C(=O)OC(C(C)CC2CCC(OCCO)C(OC)C2)CC(=O)C(C)C=C(C)C(O)C(OC)C(=O)C(C)CC(C)C=CC=CC=C1C (stereo not given) + CC(C)NCC(C(=O)N1CCN(c2ncnc3c2C(C)CC3O)CC1)c1ccc(Cl)cc1 | pIC50 | < 7.00 |
| CC(C)(C)c1nc(-c2cccc(NS(=O)(=O)c3c(F)cccc3F)c2F)c(-c2ccnc(N)n2)s1 + CC(C)NCC(C(=O)N1CCN(c2ncnc3c2C(C)CC3O)CC1)c1ccc(Cl)cc1 | pIC50 | < 5.00 |
| CC(C)CC(NC(=O)CNC(=O)c1cc(Cl)ccc1Cl)B1OC(=O)CC(CC(=O)O)(C(=O)O)O1 (stereo not given) + CC(C)NCC(C(=O)N1CCN(c2ncnc3c2C(C)CC3O)CC1)c1ccc(Cl)cc1 | pIC50 | < 7.00 |
| CCCS(=O)(=O)Nc1ccc(F)c(C(=O)c2c[nH]c3ncc(-c4ccc(Cl)cc4)cc23)c1F + CC(C)NCC(C(=O)N1CCN(c2ncnc3c2C(C)CC3O)CC1)c1ccc(Cl)cc1 | pIC50 | < 4.00 |
| CC(C)CC(NC(=O)C(Cc1ccccc1)NC(=O)c1cnccn1)B(O)O (stereo not given) + CC(C)NCC(C(=O)N1CCN(c2ncnc3c2C(C)CC3O)CC1)c1ccc(Cl)cc1 | pIC50 | < 8.00 |
| Cc1nc(NC(=O)N2CCCC2C(N)=O)sc1-c1ccnc(C(C)(C)C(F)(F)F)c1 (stereo not given) + CC(C)NCC(C(=O)N1CCN(c2ncnc3c2C(C)CC3O)CC1)c1ccc(Cl)cc1 | pIC50 | < 5.00 |
| Cn1cnc2c(F)c(Nc3ccc(Br)cc3Cl)c(C(=O)NOCCO)cc21 + CC(C)NCC(C(=O)N1CCN(c2ncnc3c2C(C)CC3O)CC1)c1ccc(Cl)cc1 | pIC50 | < 5.52 |
| CC(=O)Nc1cccc(-n2c(=O)n(C3CC3)c(=O)c3c(Nc4ccc(I)cc4F)n(C)c(=O)c(C)c32)c1 + CC(C)NCC(C(=O)N1CCN(c2ncnc3c2C(C)CC3O)CC1)c1ccc(Cl)cc1 | pIC50 | < 7.52 |
| COc1c(OCCCN2CCOCC2)ccc2c3n(c(=NC(=O)c4cnc(N)nc4)nc12)CCN3 + CC(C)NCC(C(=O)N1CCN(c2ncnc3c2C(C)CC3O)CC1)c1ccc(Cl)cc1 | pIC50 | < 6.00 |

----------
Test system: PDC tumor spheroids with HUVEC/MSC, viability
Experiment: Anticancer human tumor 439559-082-T-J2-PDC cell line growth inhibition [TAK];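 also: spheroids exposed to drugs for seven days before readout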
Settings: second compound 3 µM; first compound 0.00316 µM; stronger effect = lower value

| compound | viability, T/C |
| --- | --- |
| COC1CC2CCC(C)C(O)(O2)C(=O)C(=O)N2CCCCC2C(=O)OC(C(C)CC2CCC(OCCO)C(OC)C2)CC(=O)C(C)C=C(C)C(O)C(OC)C(=O)C(C)CC(C)C=CC=CC=C1C (stereo not given) + CC(C)NCC(C(=O)N1CCN(c2ncnc3c2C(C)CC3O)CC1)c1ccc(Cl)cc1 | 87.6% |
| CC(C)CC(NC(=O)C(Cc1ccccc1)NC(=O)c1cnccn1)B(O)O (stereo not given) + CC(C)NCC(C(=O)N1CCN(c2ncnc3c2C(C)CC3O)CC1)c1ccc(Cl)cc1 | 89.3% |
| COc1c(OCCCN2CCOCC2)ccc2c3n(c(=NC(=O)c4cnc(N)nc4)nc12)CCN3 + CC(C)NCC(C(=O)N1CCN(c2ncnc3c2C(C)CC3O)CC1)c1ccc(Cl)cc1 | 85.1% |
| CC(C)CC(NC(=O)CNC(=O)c1cc(Cl)ccc1Cl)B1OC(=O)CC(CC(=O)O)(C(=O)O)O1 (stereo not given) + CC(C)NCC(C(=O)N1CCN(c2ncnc3c2C(C)CC3O)CC1)c1ccc(Cl)cc1 | 88.5% |
| CC(C)n1nc(-c2ccc3oc(N)nc3c2)c2c(N)ncnc21 + CC(C)NCC(C(=O)N1CCN(c2ncnc3c2C(C)CC3O)CC1)c1ccc(Cl)cc1 | 80.8% |

----------
Test system: PDC tumor spheroids with HUVEC/MSC, viability
Assay: Anticancer human tumor 439559-082-T-J2-PDC cell line growth inhibition [TAK];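 also: spheroids exposed to drugs for seven days before readout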
Conditions: compound alone; run of 02/28/2020

| molecule | IC50 |
| --- | --- |
| CC(C)NCC(C(=O)N1CCN(c2ncnc3c2C(C)CC3O)CC1)c1ccc(Cl)cc1 (stereo unspecified) | > 30 µM |

----------
# viability, T/C listing for each entry below
Tested on: PDC tumor spheroids with HUVEC/MSC, viability
Assay: Anticancer human tumor 439559-082-T-J2-PDC cell line growth inhibition [TAK];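 also: spheroids exposed to drugs for seven days before readout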
Conditions: second compound 30 µM; first compound 0.01 µM; stronger effect = lower value
measured-metric: viability, T/C (%)

| compound | observed-result |
| --- | --- |
| CC(C)CC(NC(=O)CNC(=O)c1cc(Cl)ccc1Cl)B1OC(=O)CC(CC(=O)O)(C(=O)O)O1 (stereo not given) + CC(C)NCC(C(=O)N1CCN(c2ncnc3c2C(C)CC3O)CC1)c1ccc(Cl)cc1 | 83.3 |
| CC(C)CC(NC(=O)C(Cc1ccccc1)NC(=O)c1cnccn1)B(O)O (stereo not given) + CC(C)NCC(C(=O)N1CCN(c2ncnc3c2C(C)CC3O)CC1)c1ccc(Cl)cc1 | 69.1 |
| COC1CC2CCC(C)C(O)(O2)C(=O)C(=O)N2CCCCC2C(=O)OC(C(C)CC2CCC(OCCO)C(OC)C2)CC(=O)C(C)C=C(C)C(O)C(OC)C(=O)C(C)CC(C)C=CC=CC=C1C (stereo not given) + CC(C)NCC(C(=O)N1CCN(c2ncnc3c2C(C)CC3O)CC1)c1ccc(Cl)cc1 | 77.7 |
| COc1c(OCCCN2CCOCC2)ccc2c3n(c(=NC(=O)c4cnc(N)nc4)nc12)CCN3 + CC(C)NCC(C(=O)N1CCN(c2ncnc3c2C(C)CC3O)CC1)c1ccc(Cl)cc1 | 79 |
| CC(C)n1nc(-c2ccc3oc(N)nc3c2)c2c(N)ncnc21 + CC(C)NCC(C(=O)N1CCN(c2ncnc3c2C(C)CC3O)CC1)c1ccc(Cl)cc1 | 75 |
